Values from ChEMBL document CHEMBL2202999

ASSAY PROCEDURE: Inhibition of binding of biotinylated chicken galectin-8S to surface immobilized asialofetuin by solid phase assay
Parameters: species or system Gallus gallus
pIC50: −log10 of the molar value.
QUANTITY: pIC50

TEST SMILES	pIC50
C=CC[C@@H]1O[C@@H](C(=O)NCc2ccc(CNC(=O)[C@H]3O[C@H](CC=C)[C@H](OCc4ccccc4)[C@@H](OCc4ccccc4)[C@@H]3OCc3cn([C@@H]4O[C@H](CO)[C@@H](O[C@@H]5O[C@H](CO)[C@H](O)[C@H](O)[C@H]5O)[C@H](O)[C@H]4O)nn3)cc2)[C@H](OCc2cn([C@@H]3O[C@H](CO)[C@@H](O[C@@H]4O[C@H](CO)[C@H](O)[C@H](O)[C@H]4O)[C@H](O)[C@H]3O)nn2)[C@@H](OCc2ccccc2)[C@@H]1OCc1ccccc1	2.52
O=C1NCc2ccc(cc2)CNC(=O)[C@@H]2O[C@@H](C/C=C/C[C@H]3O[C@H]1[C@@H](OCc1cn([C@@H]4O[C@H](CO)[C@@H](O[C@@H]5O[C@H](CO)[C@H](O)[C@H](O)[C@H]5O)[C@H](O)[C@H]4O)nn1)[C@H](OCc1ccccc1)[C@H]3OCc1ccccc1)[C@@H](OCc1ccccc1)[C@H](OCc1ccccc1)[C@H]2OCc1cn([C@@H]2O[C@H](CO)[C@@H](O[C@@H]3O[C@H](CO)[C@H](O)[C@H](O)[C@H]3O)[C@H](O)[C@H]2O)nn1	3.40

P: OC[C@H]1O[C@@H](O[C@H]2[C@H](O)[C@@H](O)[C@H](n3cc(-c4ccc(-c5cn([C@@H]6O[C@H](CO)[C@@H](O[C@@H]7O[C@H](CO)[C@H](O)[C@H](O)[C@H]7O)[C@H](O)[C@H]6O)nn5)cc4)nn3)O[C@@H]2CO)[C@H](O)[C@@H](O)[C@H]1O
Q: O=C(/C=C/C(=O)N[C@@H]1O[C@H](CO)[C@@H](O[C@@H]2O[C@H](CO)[C@H](O)[C@H](O)[C@H]2O)[C@H](O)[C@H]1O)N[C@@H]1O[C@H](CO)[C@@H](O[C@@H]2O[C@H](CO)[C@H](O)[C@H](O)[C@H]2O)[C@H](O)[C@H]1O
Task: Looking only at measured pIC50, which entry is lower, P or Q ? Kindly give the label for the entry you pick.
Output: Q
(Q: 2.60, P: 3.15)

* * *

ASSAY PROCEDURE: Inhibition of binding of biotinylated chicken galectin-2 to surface immobilized asialofetuin by solid phase assay
Design: species or system Gallus gallus
QUANTITY: IC50 (mM)
Entry rule: numbers only, all in mM.

Task: For the substance shown here, LACTOSE, ANHYDROUS , give the reported IC50.
Output: 6

* * *

ASSAY PROCEDURE: Inhibition of binding of biotinylated Erythrina crista-galli agglutinin to surface immobilized asialofetuin by solid phase assay
pIC50: −log10 of the molar value.
QUANTITY: pIC50

TEST SMILES	pIC50
C=CC[C@@H]1O[C@@H](C(=O)NCc2ccc(CNC(=O)[C@H]3O[C@H](CC=C)[C@H](OCc4ccccc4)[C@@H](OCc4ccccc4)[C@@H]3OCc3cn([C@@H]4O[C@H](CO)[C@@H](O[C@@H]5O[C@H](CO)[C@H](O)[C@H](O)[C@H]5O)[C@H](O)[C@H]4O)nn3)cc2)[C@H](OCc2cn([C@@H]3O[C@H](CO)[C@@H](O[C@@H]4O[C@H](CO)[C@H](O)[C@H](O)[C@H]4O)[C@H](O)[C@H]3O)nn2)[C@@H](OCc2ccccc2)[C@@H]1OCc1ccccc1	2.89
O=C1NCc2ccc(cc2)CNC(=O)[C@@H]2O[C@@H](C/C=C/C[C@H]3O[C@H]1[C@@H](OCc1cn([C@@H]4O[C@H](CO)[C@@H](O[C@@H]5O[C@H](CO)[C@H](O)[C@H](O)[C@H]5O)[C@H](O)[C@H]4O)nn1)[C@H](OCc1ccccc1)[C@H]3OCc1ccccc1)[C@@H](OCc1ccccc1)[C@H](OCc1ccccc1)[C@H]2OCc1cn([C@@H]2O[C@H](CO)[C@@H](O[C@@H]3O[C@H](CO)[C@H](O)[C@H](O)[C@H]3O)[C@H](O)[C@H]2O)nn1	3.10

P: OC[C@H]1O[C@@H](O[C@H]2[C@H](O)[C@@H](O)[C@H](n3cc(-c4ccc(-c5cn([C@@H]6O[C@H](CO)[C@@H](O[C@@H]7O[C@H](CO)[C@H](O)[C@H](O)[C@H]7O)[C@H](O)[C@H]6O)nn5)cc4)nn3)O[C@@H]2CO)[C@H](O)[C@@H](O)[C@H]1O
Q: O=C(/C=C/C(=O)N[C@@H]1O[C@H](CO)[C@@H](O[C@@H]2O[C@H](CO)[C@H](O)[C@H](O)[C@H]2O)[C@H](O)[C@H]1O)N[C@@H]1O[C@H](CO)[C@@H](O[C@@H]2O[C@H](CO)[C@H](O)[C@H](O)[C@H]2O)[C@H](O)[C@H]1O
Task: Which is greater in pIC50, the first item P or the second item Q ? Kindly give the label for the entry you pick.
Output: P

* * *

ASSAY PROCEDURE: Inhibition of binding of biotinylated chicken galectin-8N to surface immobilized asialofetuin by solid phase assay
Design: species or system Gallus gallus
QUANTITY: IC50 (µM)

Look over these answered cases.
TEST SMILES	IC50 (µM)
C=CC[C@@H]1O[C@@H](C(=O)NCc2ccc(CNC(=O)[C@H]3O[C@H](CC=C)[C@H](OCc4ccccc4)[C@@H](OCc4ccccc4)[C@@H]3OCc3cn([C@@H]4O[C@H](CO)[C@@H](O[C@@H]5O[C@H](CO)[C@H](O)[C@H](O)[C@H]5O)[C@H](O)[C@H]4O)nn3)cc2)[C@H](OCc2cn([C@@H]3O[C@H](CO)[C@@H](O[C@@H]4O[C@H](CO)[C@H](O)[C@H](O)[C@H]4O)[C@H](O)[C@H]3O)nn2)[C@@H](OCc2ccccc2)[C@@H]1OCc1ccccc1	400
O=C1NCc2ccc(cc2)CNC(=O)[C@@H]2O[C@@H](C/C=C/C[C@H]3O[C@H]1[C@@H](OCc1cn([C@@H]4O[C@H](CO)[C@@H](O[C@@H]5O[C@H](CO)[C@H](O)[C@H](O)[C@H]5O)[C@H](O)[C@H]4O)nn1)[C@H](OCc1ccccc1)[C@H]3OCc1ccccc1)[C@@H](OCc1ccccc1)[C@H](OCc1ccccc1)[C@H]2OCc1cn([C@@H]2O[C@H](CO)[C@@H](O[C@@H]3O[C@H](CO)[C@H](O)[C@H](O)[C@H]3O)[C@H](O)[C@H]2O)nn1	300

a: O=C(/C=C/C(=O)N[C@@H]1O[C@H](CO)[C@@H](O[C@@H]2O[C@H](CO)[C@H](O)[C@H](O)[C@H]2O)[C@H](O)[C@H]1O)N[C@@H]1O[C@H](CO)[C@@H](O[C@@H]2O[C@H](CO)[C@H](O)[C@H](O)[C@H]2O)[C@H](O)[C@H]1O
b: OC[C@H]1O[C@@H](O[C@H]2[C@H](O)[C@@H](O)[C@H](n3cc(-c4ccc(-c5cn([C@@H]6O[C@H](CO)[C@@H](O[C@@H]7O[C@H](CO)[C@H](O)[C@H](O)[C@H]7O)[C@H](O)[C@H]6O)nn5)cc4)nn3)O[C@@H]2CO)[C@H](O)[C@@H](O)[C@H]1O
Task: Looking only at measured IC50, which entry is lower, a or b ? Kindly give the label for the entry you pick.
Output: b
(b: 500 µM, a: 800 µM)

* * *

ASSAY PROCEDURE: Inhibition of binding of biotinylated Viscum album agglutinin to surface immobilized asialofetuin by solid phase assay
QUANTITY: pIC50
Reminder that pIC50 means the negative base-10 logarithm of the concentration expressed in mol/L.

Task: For the substance shown here, LACTOSE, ANHYDROUS , give the reported pIC50.
Output: 3.22

* * *

ASSAY PROCEDURE: Inhibition of binding of biotinylated chicken galectin-8L to surface immobilized asialofetuin by solid phase assay
Parameters: species or system Gallus gallus
QUANTITY: IC50 (mM)
Entry rule: numbers only, all in mM.

Task: For the substance shown here, LACTOSE, ANHYDROUS , give the reported IC50.
Output: 5
